# reported pEC50; entries follow
System: SARS-CoV-2 replicon
assay.overview: microbe, parasite or virus in culture
Type: cell-based
test.parameters: Severe acute respiratory syndrome coronavirus 2, Huh-7
pEC50: −log10 of the molar value.

Recorded results for 5 compounds are shown here.
[
  {
    "compound": "N#Cc1ccc(C#CCNC(=O)C(=O)NCc2ccccc2C(=O)NC2(c3ccc4ccccc4c3)CC2)cc1 [Example 171]",
    "result": "> 6.00"
  },
  {
    "compound": "C[C@@H](C#Cc1ccc(C#N)cc1OC(F)(F)F)NC(=O)C(=O)NCc1ccccc1C(=O)NC1(c2ccc3nn(C)cc3c2)CC1 [Example 206]",
    "result": "> 6.00"
  },
  {
    "compound": "CCOc1cccnc1C#CCNC(=O)C(=O)NCc1ccccc1C(=O)NC1(c2ccc3ccccc3c2)CC1 [Example 200]",
    "result": "> 6.00"
  },
  {
    "compound": "COc1cc(C2(NC(=O)c3ccccc3CNC(=O)C(=O)N[C@@H](C)C#Cc3ccc(C#N)cc3OC(F)(F)F)CC2)cc2cn(C3CC3)nc12 [Example 216]",
    "result": "> 6.00"
  },
  {
    "compound": "N#CCNC(=O)C(=O)NCc1ccccc1C(=O)NC1(c2cc(Cl)cc(-c3cnn(C4CC4)c3)c2)CC1 [Example 454]",
    "result": "5.00 to 6.00"
  }
]

For the next question, use this compound.
Report pEC50 for C[C@@H](C#Cc1nccs1)NC(=O)C(=O)NCc1ccccc1C(=O)NC1(c2cc(Cl)cc(-c3ncco3)c2)CC1 [Example 493] please. > 6.00
